Hey, just so you know, these numbers are from ChEMBL document CHEMBL1201862.

Tested on: Malme-3M
procedure-details: NCI tumour cell line growth inhibition, 48 h
Calls of active or inactive are those of the source. No stated cut-off is given here; in the data, active = GI50 up to about 1.1 µM and inactive = higher.
Log the outcome using a class from y for active, n for inactive

Worked cases, answers included:
compound	measured-on	class-assignment
C=CCN(c1cc(OC)c2[nH]cc(C)c2c1[N+](=O)[O-])S(C)(=O)=O	Malme-3M	n
O=[N+]([O-])c1cc(-c2nnc(C34CC5CC(CC(C5)C3)C4)o2)cc([N+](=O)[O-])c1	Malme-3M	n
COc1ccccc1N1C(=O)/C(=C/c2ccc(N(CCC#N)CCC#N)cc2C)N=C1c1cc([N+](=O)[O-])ccc1Cl	Malme-3M	n
CCC(C)C(=O)OC1CC2(C)C(c3ccoc3)OC(=O)CC23OC2(C)OC34C(OC(=O)C(C)C)C3(O)C(OC(=O)C5(C)OC5C)C5(C)CC3(O)C(C)(C5CC(=O)OC)C14O2 (configuration not stated)	Malme-3M	n
COC(=O)C(C(=O)C(=O)NC1=C(Cl)C(=O)c2ccccc2C1=O)c1csc(-n2nc(-c3ccccc3)cc2-c2ccccc2)n1 (configuration not stated)	Malme-3M	n
Cc1cc(O)c2c(c1O)C(=O)C13C(=C(O)C4C(O)C1C1C(O)C3C(O)=C3C(=O)c5c(O)cc(C)c(O)c5C(=O)C341)C2=O (configuration not stated)	Malme-3M	y
CC(C)=CCOc1cc(NC(=S)c2ccoc2C)ccc1Cl	Malme-3M	n
COC1OC(COCc2ccc(Cl)cc2)C(OCc2ccc(Cl)cc2)C1O (configuration not stated)	Malme-3M	n

// query Which result was noted for this compound in the test: COc1cccc(/N=C/c2cc3cc(Br)ccc3nc2Cl)c1
// result n

// query Also check O=c1cc(NNc2cccc(Cl)c2)[nH]c(=O)[nH]1
// result n

// query Now try CN1CCC(OC(=O)Oc2ccccc2)(c2ccccc2)CC1 .
// result n

// query Thanks! And CN(C)c1ccc(C=c2c3ccccc3n3c2cc(-c2ccc(Cl)cc2)[n+]3C)cc1 ?
// result y

---

Test system: HOP-62
procedure-details: NCI tumour cell line growth inhibition, 48 h
Activity calls are given as the source filed them. No stated cut-off is given here; in the data, active = GI50 up to about 1.1 µM and inactive = higher. Where a SMILES comes first, the peptide text is derived from it. [ ]: non-standard residue; d: D form. Phe(F5) = N[CH](Cc1c(F)c(F)c(F)c(F)c1F)C(=O)O
Please reply with one of these outcomes: active, inactive

Reference set (6 entries):
compound	class-assignment
O/N=C1\CCc2cc3c(cc21)CCC3	inactive
O=C(NC(=O)c1ccccc1[N+](=O)[O-])Nc1ccc(Oc2ncc(Cl)cn2)c(C(F)(F)F)c1	active
CC(C)(C)OC(=O)N1N=CCC1c1ccccc1 (centres undefined)	inactive
CC(=O)Oc1cccc2c1C(=O)C(Br)(Br)CCC2	inactive
C=C1C[C@@H](O)C[C@@]2(C)C[C@@H]3OC(=O)C(=C)[C@@H]3C[C@H]12	inactive
Cc1ccc(C(=O)/C=C/c2ccccc2O)c(C)c1	inactive

// query How was CN(C)c1nc2n(CCO)c(-c3ccccc3)c(-c3ccccc3)nc-2c(=O)n1 classified in this test?
// result inactive

// query Thanks! And c1ccc([P+](c2ccccc2)(c2ccccc2)c2ccc(-c3ccc([P+](c4ccccc4)(c4ccccc4)c4ccccc4)cc3)cc2)cc1 ?
// result inactive

// query Query N/N=C(\C(=O)Nc1c(Cl)cc([N+](=O)[O-])cc1Cl)C(c1cnc2ccc([N+](=O)[O-])cc2n1)[N+](=O)[O-] (centres undefined) next
// result inactive

// query Also need COc1ccc(NC(=O)c2cc(OC)cc(OC)c2)cc1 , thanks.
// result inactive

// query Also need COc1ccc(C2(CC(C)C)CCNC2)cc1OC (centres undefined) , thanks.
// result inactive

// query Try this compound too: C=CCCC(=O)N1CCC(C(=O)OCC)C1=O (centres undefined)
// result inactive

// query Also need COC(=O)C(CC(C)C)NC(=O)C(Cc1c[nH]cn1)NC(=O)CNC(=O)C(NC(=O)C(C)NC(=O)C(Cc1c[nH]c2ccccc12)NC(=O)C(CCC(=O)O)NC(=O)C(N)Cc1c(F)c(F)c(F)c(F)c1F)C(C)C (centres undefined) (H-[Phe(F5)]EWAVGHL-OMe; configuration not given here) , thanks.
// result inactive
